SYSTEM_UNDER_TEST: MBT domain-containing protein 1 (Homo sapiens, UniProt Q05BQ5)
Sequence (Q05BQ5 whole entry, the tested form may be a part): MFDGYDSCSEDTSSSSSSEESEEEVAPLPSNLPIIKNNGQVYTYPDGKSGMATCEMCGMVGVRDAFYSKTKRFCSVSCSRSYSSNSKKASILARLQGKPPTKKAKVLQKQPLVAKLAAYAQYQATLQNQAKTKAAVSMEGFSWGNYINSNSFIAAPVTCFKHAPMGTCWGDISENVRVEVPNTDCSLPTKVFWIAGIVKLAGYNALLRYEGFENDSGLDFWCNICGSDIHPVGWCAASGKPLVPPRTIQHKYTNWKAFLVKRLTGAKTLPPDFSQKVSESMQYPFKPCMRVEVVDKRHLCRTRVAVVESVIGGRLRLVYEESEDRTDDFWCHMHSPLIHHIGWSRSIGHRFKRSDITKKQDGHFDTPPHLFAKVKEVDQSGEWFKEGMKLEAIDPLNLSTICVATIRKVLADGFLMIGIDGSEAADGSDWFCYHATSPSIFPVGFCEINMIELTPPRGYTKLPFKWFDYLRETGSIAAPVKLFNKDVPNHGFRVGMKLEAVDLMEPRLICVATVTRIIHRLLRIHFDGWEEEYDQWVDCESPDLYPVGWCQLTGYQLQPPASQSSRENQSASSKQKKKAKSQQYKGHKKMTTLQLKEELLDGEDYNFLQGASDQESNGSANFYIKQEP
MEASUREMENT_NOTES: Antagonist activity at MBTD1 (unknown origin) assessed as inhibition of MBTD1/biotinylated H4K20Me1 peptide interaction at 30 uM after 30 mins by AlphaScreen assay
Examples of compounds with documented inhibition follow.

COMPOUND	inhibition
O=C(c1ccccc1)N1CCC(N2CCCC2)CC1	22%

Identify the measured inhibition of `c1ccc(C(c2ccccc2)N2CCC(N3CCCC3)CC2)cc1` for MBT domain-containing protein 1 (Homo sapiens, UniProt Q05BQ5).
36%

Identify the measured inhibition of `CNC(=O)c1cccc(C(=O)N2CCC(N3CCCC3)CC2)c1` for MBT domain-containing protein 1 (Homo sapiens, UniProt Q05BQ5).
21%

Identify the measured inhibition of `O=C(c1ccc(Br)cc1)N1CCC(N2CCCC2)CC1` for MBT domain-containing protein 1 (Homo sapiens, UniProt Q05BQ5).
24%

Identify the measured inhibition of `O=C(c1cccc(Br)c1)N1CCC(N2CC=CC2)CC1` for MBT domain-containing protein 1 (Homo sapiens, UniProt Q05BQ5).
24%

Identify the measured inhibition of O=C(c1cccc(Br)c1)N1CCC(N2CCCC2)C1 (stereo not drawn) for MBT domain-containing protein 1 (Homo sapiens, UniProt Q05BQ5).
13%

Identify the measured inhibition of `CN(C)C1CCN(C(=O)c2cccc(Br)c2)CC1` for MBT domain-containing protein 1 (Homo sapiens, UniProt Q05BQ5).
1%

Identify the measured inhibition of CC1CCCN1C1CCN(C(=O)c2cccc(Br)c2)CC1 (stereo not drawn) for MBT domain-containing protein 1 (Homo sapiens, UniProt Q05BQ5).
16%

Identify the measured inhibition of `O=C(c1cncc(Br)c1)N1CCC(N2CCCC2)CC1` for MBT domain-containing protein 1 (Homo sapiens, UniProt Q05BQ5).
23%

Identify the measured inhibition of `O=C(c1ccccc1Br)N1CCC(N2CCCC2)CC1` for MBT domain-containing protein 1 (Homo sapiens, UniProt Q05BQ5).
31%

Identify the measured inhibition of `C[N+]1(C2CCN(C(=O)c3cccc(Br)c3)CC2)CCCC1` for MBT domain-containing protein 1 (Homo sapiens, UniProt Q05BQ5).
3%

Identify the measured inhibition of `CNC1CCN(C(=O)c2cccc(Br)c2)CC1` for MBT domain-containing protein 1 (Homo sapiens, UniProt Q05BQ5).
3%

Identify the measured inhibition of CN1CCCC1C1CCN(C(=O)c2cccc(Br)c2)CC1 (stereo not drawn) for MBT domain-containing protein 1 (Homo sapiens, UniProt Q05BQ5).
32%

Identify the measured inhibition of `O=C(c1cccc(Br)c1)N1CCC(N2CCCC2)CC1` for MBT domain-containing protein 1 (Homo sapiens, UniProt Q05BQ5).
44%

Identify the measured inhibition of `O=C(c1cccc(Br)c1)N1CCC(N2CCC2)CC1` for MBT domain-containing protein 1 (Homo sapiens, UniProt Q05BQ5).
20%

Identify the measured inhibition of O=C(c1cccc(Br)c1)N1CC2CCC(C1)C2N1CCCC1 (stereo not drawn) for MBT domain-containing protein 1 (Homo sapiens, UniProt Q05BQ5).
31%

Identify the measured inhibition of `O=C(O)c1cccc(C(=O)N2CCC(N3CCCC3)CC2)c1` for MBT domain-containing protein 1 (Homo sapiens, UniProt Q05BQ5).
4%

====

SYSTEM_UNDER_TEST: Lethal(3)malignant brain tumor-like protein 1 (Homo sapiens)
MEASUREMENT_SETUP: Plus RIL, 30 uM
Active and inactive are the calls of the source. No cut-off for these calls is given here.
READOUT_NAME: inhibition

Known inhibition results, listed for orientation:
MOLECULE	SYSTEM_UNDER_TEST	inhibition
O=C(c1cccc(Br)c1)N1CCC(N2CCCCC2)CC1	Lethal(3)malignant brain tumor-like protein 1 (Homo sapiens)	5%
O=C(c1cccc(Br)c1)N1CCC(C2CCCN2)CC1 (centres undefined)	Lethal(3)malignant brain tumor-like protein 1 (Homo sapiens)	6%
C[N+]1(C2CCN(C(=O)c3cccc(Br)c3)CC2)CCCC1	Lethal(3)malignant brain tumor-like protein 1 (Homo sapiens)	inactive
O=C(c1cccc(Br)c1)N1CCN(C2CCCC2)CC1	Lethal(3)malignant brain tumor-like protein 1 (Homo sapiens)	inactive
Brc1cccc(CN2CCC(N3CCCC3)CC2)c1	Lethal(3)malignant brain tumor-like protein 1 (Homo sapiens)	20%
CN1CCCC1C1CCN(C(=O)c2cccc(Br)c2)CC1 (centres undefined)	Lethal(3)malignant brain tumor-like protein 1 (Homo sapiens)	3%
O=S(=O)(c1cccc(Br)c1)N1CCC(N2CCCC2)CC1	Lethal(3)malignant brain tumor-like protein 1 (Homo sapiens)	48%
CC1CCCN1C1CCN(C(=O)c2cccc(Br)c2)CC1 (centres undefined)	Lethal(3)malignant brain tumor-like protein 1 (Homo sapiens)	6%

inhibition lookup needed for `CNC1CCN(C(=O)c2cccc(Br)c2)CC1` , thanks.
inactive

The reported numbers originate from ChEMBL document CHEMBL3217594.
